Where do the numbers come from? From ChEMBL document CHEMBL5291721.

Assay read-out AC50; system under study: Alpha-2B adrenergic receptor (Homo sapiens, UniProt P18089). Note: assay procedure not described here.
Sequence (P18089 whole entry): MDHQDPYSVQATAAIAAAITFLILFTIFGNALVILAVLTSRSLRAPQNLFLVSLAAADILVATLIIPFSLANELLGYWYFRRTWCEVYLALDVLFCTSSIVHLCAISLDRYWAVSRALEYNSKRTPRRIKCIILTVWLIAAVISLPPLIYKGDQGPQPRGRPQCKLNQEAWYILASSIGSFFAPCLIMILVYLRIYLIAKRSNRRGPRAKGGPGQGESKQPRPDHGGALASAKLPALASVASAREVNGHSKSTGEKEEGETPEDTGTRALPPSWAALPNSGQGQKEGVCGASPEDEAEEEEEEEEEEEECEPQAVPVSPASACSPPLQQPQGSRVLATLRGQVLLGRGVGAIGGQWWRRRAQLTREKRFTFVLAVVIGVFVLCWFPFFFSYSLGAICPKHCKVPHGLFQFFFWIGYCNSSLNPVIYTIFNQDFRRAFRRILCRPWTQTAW

molecule	result
Cc1onc(-c2c(F)cccc2Cl)c1C(=O)N[C@@H]1C(=O)N2[C@@H]1SC(C)(C)[C@@H]2C(=O)O	> 30 µM
COc1cc(C(C)=O)ccc1OCCCN1CCC(c2noc3cc(F)ccc23)CC1	0.105 µM
O=C(O)c1ccc(NC(=O)[C@H](Cc2ccc(O)cc2)NC(=O)c2ccccc2)cc1 [BENTIROMIDE]	> 10 µM
CO/N=C(\C(=O)N[C@@H]1C(=O)N2C(C(=O)O)=C(CSc3nc(=O)c(=O)[nH]n3C)CS[C@H]12)c1csc(N)n1	> 30 µM
O=C(O)COCCN1CCN(C(c2ccccc2)c2ccc(Cl)cc2)CC1 (configuration not stated)	> 10 µM

For each of the molecules below, note its AC50.
1. CC(=O)[C@H]1CC[C@H]2[C@@H]3C[C@H](C)C4=CC(=O)CC[C@]4(C)[C@H]3[C@@H](O)C[C@]12C
2. C[C@@H]1C[C@H]2[C@@H]3C[C@H](F)C4=CC(=O)C=C[C@]4(C)[C@@]3(F)[C@@H](O)C[C@]2(C)[C@@]1(OC(=O)c1ccco1)C(=O)SCF [FLUTICASONE FUROATE]

["> 10 µM", "> 10 µM"]

* * *

# systemTested: Alpha-2A adrenergic receptor (Homo sapiens); note: assay procedure not described here
# Sequence (P08913 whole entry): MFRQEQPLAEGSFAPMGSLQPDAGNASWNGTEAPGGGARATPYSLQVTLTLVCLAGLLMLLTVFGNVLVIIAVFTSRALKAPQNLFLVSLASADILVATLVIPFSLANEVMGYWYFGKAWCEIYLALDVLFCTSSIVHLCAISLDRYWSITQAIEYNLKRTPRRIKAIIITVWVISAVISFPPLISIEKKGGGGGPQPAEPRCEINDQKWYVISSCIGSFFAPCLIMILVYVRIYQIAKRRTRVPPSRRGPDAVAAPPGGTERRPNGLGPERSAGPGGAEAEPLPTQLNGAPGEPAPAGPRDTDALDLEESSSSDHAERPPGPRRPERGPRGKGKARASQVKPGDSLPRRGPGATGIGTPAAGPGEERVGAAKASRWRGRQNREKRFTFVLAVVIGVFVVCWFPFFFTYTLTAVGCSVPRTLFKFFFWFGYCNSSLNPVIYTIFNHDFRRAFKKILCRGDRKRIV
# Format: functional, cell-based
So I've got a bunch of compounds here, and I need their AC50 values.

Recorded results for 4 compounds are shown here.
compound	endpointLabel	result
Cc1nnc(SCC2=C(C(=O)O)N3C(=O)[C@@H](NC(=O)Cn4cnnn4)[C@H]3SC2)s1	AC50	> 300 µM
CC(C)c1cccc(C(C)C)c1O	AC50	> 30 µM
CCC(NC(C)C)C(O)c1ccc(O)c2[nH]c(=O)ccc12 (stereo not given)	AC50	> 30 µM
COc1ccc(C2C(=O)c3ccccc3C2=O)cc1	AC50	> 10 µM

Now let's try a different one.
I'd like to know its AC50. The compound in question is CN1CCN=C(c2ccccc2)c2cc(Cl)ccc21
> 30 µM

* * *

# systemTested: Mu-type opioid receptor (Homo sapiens); note: assay procedure not described here
# Sequence (P35372 whole entry): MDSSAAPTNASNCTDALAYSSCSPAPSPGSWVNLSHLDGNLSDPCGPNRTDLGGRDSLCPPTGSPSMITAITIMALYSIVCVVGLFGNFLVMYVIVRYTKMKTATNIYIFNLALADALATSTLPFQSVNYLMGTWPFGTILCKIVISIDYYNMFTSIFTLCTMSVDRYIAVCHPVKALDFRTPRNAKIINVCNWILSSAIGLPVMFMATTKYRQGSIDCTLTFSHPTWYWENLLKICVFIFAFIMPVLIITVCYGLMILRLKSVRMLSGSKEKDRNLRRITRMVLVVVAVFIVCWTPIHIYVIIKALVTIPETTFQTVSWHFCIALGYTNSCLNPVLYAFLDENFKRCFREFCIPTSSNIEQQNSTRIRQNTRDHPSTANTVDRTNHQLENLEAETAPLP
endpointLabel: AC50 (µM)
Answers are plain numbers, in µM.

Recorded results for 3 compounds are shown here.
compound	quantitativeReadout
Clc1ccc(C(Cn2ccnc2)OCc2csc3c(Cl)cccc23)c(Cl)c1 (centres undefined)	3.59
O=C1Cc2cc(CCN3CCN(c4nsc5ccccc45)CC3)c(Cl)cc2N1	5.06
COC(=O)[C@H]1[C@H]2C[C@@H]3c4[nH]c5cc(OC)ccc5c4CCN3C[C@H]2C[C@@H](OC(=O)c2cc(OC)c(OC)c(OC)c2)[C@@H]1OC	3.77

Now let's try a different one.
I'd like to know its AC50. The compound in question is COc1cc(C(C)=O)ccc1OCCCN1CCC(c2noc3cc(F)ccc23)CC1
4.11

* * *

Assay read-out AC50; system under study: Delta-type opioid receptor (Homo sapiens). Note: assay procedure not described here.
Sequence (P41143 whole entry): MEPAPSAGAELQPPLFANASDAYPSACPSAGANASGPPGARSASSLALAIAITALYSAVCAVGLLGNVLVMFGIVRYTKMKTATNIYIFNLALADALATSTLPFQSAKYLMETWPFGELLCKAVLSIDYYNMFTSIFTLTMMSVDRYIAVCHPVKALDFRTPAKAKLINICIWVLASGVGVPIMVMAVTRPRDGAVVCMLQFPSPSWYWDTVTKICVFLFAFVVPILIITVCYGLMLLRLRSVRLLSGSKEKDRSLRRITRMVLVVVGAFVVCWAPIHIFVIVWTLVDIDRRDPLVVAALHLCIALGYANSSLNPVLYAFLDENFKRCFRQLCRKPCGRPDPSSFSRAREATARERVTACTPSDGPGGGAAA

Recorded results for 5 molecules are shown here.
molecule	systemTested	result
CN(Cc1cnc2nc(N)nc(N)c2n1)c1ccc(C(=O)N[C@@H](CCC(=O)O)C(=O)O)cc1 [METHOTREXATE]	Delta-type opioid receptor (Homo sapiens)	> 30 µM
CN(C)CCCN1c2ccccc2CCc2ccccc21	Delta-type opioid receptor (Homo sapiens)	> 10 µM
O=C1Cc2cc(CCN3CCN(c4nsc5ccccc45)CC3)c(Cl)cc2N1	Delta-type opioid receptor (Homo sapiens)	> 30 µM
CN1Cc2c(N)cccc2C(c2ccccc2)C1 (configuration not stated)	Delta-type opioid receptor (Homo sapiens)	> 30 µM
CC(CN(C)C)C(C)(O)Cc1ccc(Cl)cc1 (configuration not stated)	Delta-type opioid receptor (Homo sapiens)	> 30 µM

For each of the molecules below, note its AC50.
1. Cc1nnc(SCC2=C(C(=O)O)N3C(=O)[C@@H](NC(=O)Cn4cnnn4)[C@H]3SC2)s1
2. Cc1cc(C)nc(NS(=O)(=O)c2ccc(N)cc2)n1

> 300 µM
> 30 µM

* * *

Assay read-out AC50; system under study: Histamine H3 receptor (Homo sapiens). Note: assay procedure not described here.
Sequence (Q9Y5N1 whole entry): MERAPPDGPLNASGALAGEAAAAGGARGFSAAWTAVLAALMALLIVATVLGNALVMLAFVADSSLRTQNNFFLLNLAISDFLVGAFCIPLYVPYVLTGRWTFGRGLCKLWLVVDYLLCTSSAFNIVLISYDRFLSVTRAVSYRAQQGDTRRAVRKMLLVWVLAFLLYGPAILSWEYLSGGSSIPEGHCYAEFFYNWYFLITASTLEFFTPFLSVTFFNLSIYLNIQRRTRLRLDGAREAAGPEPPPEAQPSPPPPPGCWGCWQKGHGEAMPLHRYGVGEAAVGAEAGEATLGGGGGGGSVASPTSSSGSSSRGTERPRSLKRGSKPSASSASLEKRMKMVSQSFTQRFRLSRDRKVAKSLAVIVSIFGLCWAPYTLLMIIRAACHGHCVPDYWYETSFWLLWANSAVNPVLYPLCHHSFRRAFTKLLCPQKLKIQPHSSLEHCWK

Recorded results for 5 compounds are shown here.
compound	AC50
O=C1c2cccc3c2[C@H](CCC3)CN1[C@@H]1CN2CCC1CC2	> 30 µM
CC1=C(C(=O)OC(C)C)C(c2cccc([N+](=O)[O-])c2)C(C(=O)OC2CN(C(c3ccccc3)c3ccccc3)C2)=C(N)N1 (stereo not drawn)	> 30 µM
Cc1nnc(SCC2=C(C(=O)O)N3C(=O)[C@@H](NC(=O)Cn4cnnn4)[C@H]3SC2)s1	> 300 µM
COc1cc(N)c(Cl)cc1C(=O)NC1CCN(CCCOc2ccc(F)cc2)CC1OC (stereo not drawn) [CISAPRIDE]	> 10 µM
Cc1nc(Nc2ncc(C(=O)Nc3c(C)cccc3Cl)s2)cc(N2CCN(CCO)CC2)n1	12.7 µM

For each of the compounds below, note its AC50.
1. O=C1c2ccccc2C(=O)C1c1ccccc1
2. Cc1onc(-c2c(F)cccc2Cl)c1C(=O)N[C@@H]1C(=O)N2[C@@H]1SC(C)(C)[C@@H]2C(=O)O
3. COc1cc2[nH]c(C)c(CCN3CCN(c4ccccc4)CC3)c2cc1OC

1: > 10 µM; 2: > 30 µM; 3: > 30 µM

* * *

So I've got a bunch of compounds here, and I need their AC50 values.
# systemTested: UniProt:P27815
# Sequence (P27815 whole entry): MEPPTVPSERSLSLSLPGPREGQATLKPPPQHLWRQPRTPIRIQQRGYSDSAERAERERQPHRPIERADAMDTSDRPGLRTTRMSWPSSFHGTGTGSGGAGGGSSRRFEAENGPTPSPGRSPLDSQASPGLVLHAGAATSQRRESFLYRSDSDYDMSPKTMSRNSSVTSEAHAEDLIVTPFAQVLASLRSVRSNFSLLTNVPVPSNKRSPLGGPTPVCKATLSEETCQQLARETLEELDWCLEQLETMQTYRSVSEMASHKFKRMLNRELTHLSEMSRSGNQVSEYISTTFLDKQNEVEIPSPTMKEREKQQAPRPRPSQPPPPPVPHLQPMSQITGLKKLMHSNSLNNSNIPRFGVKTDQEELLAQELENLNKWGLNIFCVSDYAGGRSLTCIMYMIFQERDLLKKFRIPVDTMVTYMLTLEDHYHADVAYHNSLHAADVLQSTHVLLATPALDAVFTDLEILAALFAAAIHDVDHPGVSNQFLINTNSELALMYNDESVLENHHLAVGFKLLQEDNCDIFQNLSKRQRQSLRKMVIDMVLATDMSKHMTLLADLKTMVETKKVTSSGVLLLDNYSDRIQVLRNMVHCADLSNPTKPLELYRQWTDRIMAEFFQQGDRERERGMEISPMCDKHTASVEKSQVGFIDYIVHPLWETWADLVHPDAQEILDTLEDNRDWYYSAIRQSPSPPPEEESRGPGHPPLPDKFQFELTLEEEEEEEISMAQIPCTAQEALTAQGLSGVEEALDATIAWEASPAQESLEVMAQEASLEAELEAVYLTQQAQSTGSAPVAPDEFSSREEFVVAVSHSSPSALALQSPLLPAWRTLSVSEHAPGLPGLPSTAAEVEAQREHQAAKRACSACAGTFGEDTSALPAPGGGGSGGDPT
# Assay type: functional

compound	AC50
CN1CCCN(C(c2ccccc2)c2ccc(Cl)cc2)CC1 (configuration not stated)	> 30 µM
O=C(O)Cc1ccccc1Oc1ccc(Cl)cc1Cl	> 30 µM
CCN(CC)CCCC(C)Nc1c2ccc(Cl)cc2nc2ccc(OC)cc12 (configuration not stated)	> 10 µM
C=N[C@@H](C(=O)N[C@@H]1C(=O)N2[C@@H]1SC(C)(C)[C@@H]2C(=O)O)c1ccccc1	> 30 µM
C[N+](C)(C)CCOC(=O)CCC(=O)OCC[N+](C)(C)C	> 30 µM

For each of the compounds below, note its AC50.
1. C[C@H]1CN(C[C@H](Cc2ccccc2)C(=O)NCC(=O)O)CC[C@@]1(C)c1cccc(O)c1
2. NC(=O)[C@@H]1CC[C@@H]2CN1C(=O)N2OS(=O)(=O)O
3. NNCCc1ccccc1
4. Cc1oc(=O)oc1COC(=O)[C@@H]1N2C(=O)[C@@H](NC(=O)[C@H](N)c3ccccc3)[C@H]2SC1(C)C
5. C[N+](C)(C)CCOP(=O)(O)OP(=O)([O-])OC[C@H]1O[C@@H](n2ccc(N)nc2=O)[C@H](O)[C@@H]1O

> 30 µM
> 30 µM
> 30 µM
> 30 µM
> 30 µM

* * *

So I've got a bunch of molecules here, and I need their AC50 values.
# systemTested: Sodium channel protein type 5 subunit alpha (Homo sapiens, UniProt Q14524); note: assay procedure not described here
# Sequence (Q14524 whole entry): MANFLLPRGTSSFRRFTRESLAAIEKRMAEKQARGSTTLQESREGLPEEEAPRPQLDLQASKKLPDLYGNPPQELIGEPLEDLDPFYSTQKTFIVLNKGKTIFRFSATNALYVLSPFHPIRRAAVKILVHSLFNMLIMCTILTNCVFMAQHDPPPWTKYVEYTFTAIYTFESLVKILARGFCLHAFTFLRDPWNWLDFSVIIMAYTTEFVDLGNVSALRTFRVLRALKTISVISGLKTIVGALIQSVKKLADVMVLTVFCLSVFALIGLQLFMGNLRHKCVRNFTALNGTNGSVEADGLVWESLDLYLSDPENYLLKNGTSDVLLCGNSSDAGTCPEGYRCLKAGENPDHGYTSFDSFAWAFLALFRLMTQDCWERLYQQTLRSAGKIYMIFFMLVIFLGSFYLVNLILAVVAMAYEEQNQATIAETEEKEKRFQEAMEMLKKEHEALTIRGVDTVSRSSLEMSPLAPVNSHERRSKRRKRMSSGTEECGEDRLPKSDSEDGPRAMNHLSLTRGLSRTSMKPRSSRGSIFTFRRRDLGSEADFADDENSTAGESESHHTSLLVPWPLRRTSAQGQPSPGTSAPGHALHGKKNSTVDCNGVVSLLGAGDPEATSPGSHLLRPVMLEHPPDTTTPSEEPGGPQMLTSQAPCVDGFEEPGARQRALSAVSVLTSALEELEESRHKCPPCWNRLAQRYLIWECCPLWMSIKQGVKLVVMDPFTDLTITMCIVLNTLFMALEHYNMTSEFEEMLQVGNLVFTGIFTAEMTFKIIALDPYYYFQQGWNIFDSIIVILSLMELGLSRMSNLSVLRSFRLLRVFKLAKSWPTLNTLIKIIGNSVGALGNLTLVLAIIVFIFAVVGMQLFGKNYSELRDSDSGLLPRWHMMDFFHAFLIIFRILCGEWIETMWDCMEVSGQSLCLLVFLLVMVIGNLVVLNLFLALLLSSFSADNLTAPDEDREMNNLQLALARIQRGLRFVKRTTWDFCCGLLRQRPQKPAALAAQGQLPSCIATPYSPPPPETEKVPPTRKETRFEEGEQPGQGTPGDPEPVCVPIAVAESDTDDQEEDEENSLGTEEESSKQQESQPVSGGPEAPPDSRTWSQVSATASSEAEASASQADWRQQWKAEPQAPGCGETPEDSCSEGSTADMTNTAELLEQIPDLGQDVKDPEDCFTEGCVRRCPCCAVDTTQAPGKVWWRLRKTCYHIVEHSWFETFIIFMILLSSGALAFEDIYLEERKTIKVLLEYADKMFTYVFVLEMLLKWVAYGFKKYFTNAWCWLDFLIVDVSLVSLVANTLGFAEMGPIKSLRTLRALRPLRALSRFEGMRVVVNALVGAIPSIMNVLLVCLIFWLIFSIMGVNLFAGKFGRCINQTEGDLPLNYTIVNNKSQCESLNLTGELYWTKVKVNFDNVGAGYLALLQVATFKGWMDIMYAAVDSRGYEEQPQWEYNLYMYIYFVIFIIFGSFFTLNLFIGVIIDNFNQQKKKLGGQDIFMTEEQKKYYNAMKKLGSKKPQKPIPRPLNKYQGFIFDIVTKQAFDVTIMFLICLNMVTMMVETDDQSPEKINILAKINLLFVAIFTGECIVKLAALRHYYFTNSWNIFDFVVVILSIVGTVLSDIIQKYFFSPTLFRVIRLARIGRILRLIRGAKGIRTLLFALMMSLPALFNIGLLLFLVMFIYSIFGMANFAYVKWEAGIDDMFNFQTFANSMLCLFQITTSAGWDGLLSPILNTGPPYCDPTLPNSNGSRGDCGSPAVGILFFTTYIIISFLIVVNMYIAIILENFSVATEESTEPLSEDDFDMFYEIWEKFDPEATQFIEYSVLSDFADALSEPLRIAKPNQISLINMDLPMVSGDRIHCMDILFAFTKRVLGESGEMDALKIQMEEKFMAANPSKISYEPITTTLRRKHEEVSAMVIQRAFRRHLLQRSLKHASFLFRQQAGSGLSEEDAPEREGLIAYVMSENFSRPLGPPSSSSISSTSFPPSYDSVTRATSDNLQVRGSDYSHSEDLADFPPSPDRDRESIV
# Type: functional, cell-based

Recorded results for 4 molecules are shown here.
molecule	result
O=C1Cc2cc(CCN3CCN(c4nsc5ccccc45)CC3)c(Cl)cc2N1 [ZIPRASIDONE]	> 50 µM
O=C(O)Cc1ccccc1Nc1c(Cl)cccc1Cl [DICLOFENAC]	> 30 µM
CCCCCCCN(CC)CCCC(O)c1ccc(NS(C)(=O)=O)cc1 (configuration not stated) [IBUTILIDE]	> 30 µM
Fc1ccc([C@@H]2CCNC[C@H]2COc2ccc3c(c2)OCO3)cc1 [PAROXETINE]	25.4 µM

For each of the molecules below, note its AC50.
1. CCOc1cc([C@@H](CS(C)(=O)=O)N2C(=O)c3cccc(NC(C)=O)c3C2=O)ccc1OC
2. CCOC(=O)C1=C(C)NC(C)=C(C(=O)OCC)C1c1ccccc1/C=C/C(=O)OC(C)(C)C [LACIDIPINE]
3. COc1cc(N)c(Cl)cc1C(=O)NC1CCN(CCCOc2ccc(F)cc2)CC1OC (configuration not stated) [CISAPRIDE]
4. CO/N=C(\C(=O)N[C@@H]1C(=O)N2C(C(=O)O)=C(CSc3nc(=O)c(=O)[nH]n3C)CS[C@H]12)c1csc(N)n1 [CEFTRIAXONE]

> 50 µM
> 50 µM
> 50 µM
> 50 µM

For each of the molecules below, note its AC50.
1. C[C@H](CCC(=O)O)[C@H]1CC[C@H]2[C@@H]3[C@H](O)C[C@@H]4C[C@H](O)CC[C@]4(C)[C@H]3C[C@H](O)[C@]12C [CHOLIC ACID]
2. CC[C@H](C)C(=O)O[C@H]1C[C@@H](C)C=C2C=C[C@H](C)[C@H](CC[C@@H]3C[C@@H](O)CC(=O)O3)[C@H]21 [LOVASTATIN]
3. O=C(O)c1ccccc1 [BENZOIC ACID]
4. COc1ccc(CN2CCN(C(c3ccc(F)cc3)c3ccc(F)cc3)CC2)c(OC)c1OC [LOMERIZINE]
5. CC(O)(CS(=O)(=O)c1ccc(F)cc1)C(=O)Nc1ccc(C#N)c(C(F)(F)F)c1 (configuration not stated) [BICALUTAMIDE]

> 50 µM
> 30 µM
> 50 µM
16 µM
> 30 µM

For each of the molecules below, note its AC50.
1. Cc1cccc(C)c1NC(=O)CC12CCCN1CCC2 [PILSICAINIDE]
2. O=C(O)COCCN1CCN(C(c2ccccc2)c2ccc(Cl)cc2)CC1 (configuration not stated) [CETIRIZINE]
3. CCCCCCCC(=O)CC[C@@H]1[C@@H](C/C=C\CCCC(=O)OC(C)C)[C@@H](O)C[C@H]1O [UNOPROSTONE ISOPROPYL]

["> 50 µM", "> 30 µM", "27 µM"]
